We begin with a simple list: items and their reported pIC50.
- Test system: TYK-nu;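 note: growth inhibition of human TYK-nu cells, read out by a cell viability assay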
- experimental_details: cells
- Type: functional, cell-based, Homo sapiens
- condition_label: Homo sapiens, TYK-nu
- Description: SANGER: Inhibition of human TYK-nu cell growth in a cell viability assay.
Hey, just a heads up that pIC50 is the negative log base 10 of the concentration in molar.

The following compounds have reported results that may help.
[[record]]
compound = "COc1cc([C@@H]2c3cc4c(cc3[C@@H](O[C@@H]3O[C@@H]5CO[C@@H](C)O[C@H]5[C@H](O)[C@H]3O)[C@H]3COC(=O)[C@H]23)OCO4)cc(OC)c1O [ETOPOSIDE]"
system = "TYK-nu"
parameter_measured = "pIC50"
value_reported = 5.62

[[record]]
compound = "O=C(NOCC1CC1)c1ccc(F)c(F)c1Nc1ccc(I)cc1Cl"
system = "TYK-nu"
parameter_measured = "pIC50"
value_reported = 5.99


Please find the next compound below.
[in] GET /values?readout=pIC50&item= COc1cc(F)c(F)c(Nc2ccc(I)cc2F)c1NS(=O)(=O)C1(CC(O)CO)CC1 (centres undefined)
[out] 6.36

###

In this section we review reported pIC50 values for a set of molecules.
- Tested on: EC-GI-10
- experimental_details: cells
- Assay type: functional, cell-based, Homo sapiens
- condition_label: Homo sapiens, EC-GI-10
- Description: SANGER: Inhibition of human EC-GI-10 cell growth in a cell viability assay.
pIC50: −log10 of the molar value.

Examples with their reported pIC50 follow.
[[record]]
compound_structure_string = "CCC(=O)N1CCN(c2ccc(-n3c(=O)ccc4cnc5ccc(-c6cnc7ccccc7c6)cc5c43)cc2C(F)(F)F)CC1"
system = "EC-GI-10"
value_reported = "< 5.92"

[[record]]
compound_structure_string = "C=CCc1cccc(/C=N/NC(=O)CN2CCN(Cc3ccccc3)CC2)c1O"
system = "EC-GI-10"
value_reported = "< 5.59"

[[record]]
compound_structure_string = "COC(=O)CNC(=O)C(=O)OC"
system = "EC-GI-10"
value_reported = "< 2.40"


[in] Could you tell me which pIC50 is on file for Cn1cncc1[C@@](N)(c1ccc(Cl)cc1)c1ccc2c(c1)c(-c1cccc(Cl)c1)cc(=O)n2C ?
[out] < 4.80

###

- Tested on: HN
- experimental_details: cells
- Type: functional, cell-based, Homo sapiens
- condition_label: hn
- Description: SANGER: Inhibition of human HN cell growth in a cell viability assay.
parameter_measured: IC50

[in] Would you kindly share the measured IC50 for Cc1cc([C@@H](C)Nc2ccccc2C(=O)O)c2nc(N3CCOCC3)cc(=O)n2c1 ?
[out] > 5.12 µM

###

- System: HT1197
- experimental_details: cells
- Format: functional, cell-based, Homo sapiens, HT-1197
- condition_label: Homo sapiens, HT1197
- Description: SANGER: Inhibition of human HT-1197 cell growth in a cell viability assay.
pIC50: −log10 of the molar value.
parameter_measured: pIC50

Observe how each entry below is paired with its result.
[[record]]
compound = "COc1cc([C@@H]2c3cc4c(cc3[C@@H](O[C@@H]3O[C@@H]5CO[C@@H](C)O[C@H]5[C@H](O)[C@H]3O)[C@H]3COC(=O)[C@H]23)OCO4)cc(OC)c1O [ETOPOSIDE]"
parameter_measured = "pIC50"
value_reported = "< 4.80"

[[record]]
compound = "CC(=O)O[C@@]12CO[C@@H]1C[C@H](O)[C@@]1(C)C(=O)[C@H](O)C3=C(C)[C@@H](OC(=O)[C@H](O)[C@@H](NC(=O)OC(C)(C)C)c4ccccc4)C[C@@](O)([C@@H](OC(=O)c4ccccc4)[C@H]21)C3(C)C"
parameter_measured = "pIC50"
value_reported = "< 8.00"

[[record]]
compound = "COC(=O)CNC(=O)C(=O)OC"
parameter_measured = "pIC50"
value_reported = 3.50

[[record]]
compound = "Cn1cc(C2=C(c3ccc(Cl)cc3Cl)C(=O)NC2=O)c2ccccc21"
parameter_measured = "pIC50"
value_reported = "< 5.00"

[[record]]
compound = "Cn1cncc1[C@@](N)(c1ccc(Cl)cc1)c1ccc2c(c1)c(-c1cccc(Cl)c1)cc(=O)n2C"
parameter_measured = "pIC50"
value_reported = 4.93

[[record]]
compound = "CCC1=C[C@@H]2CN(C1)Cc1c([nH]c3ccccc13)[C@@](C(=O)OC)(c1cc3c(cc1OC)N(C)[C@H]1[C@@](O)(C(=O)OC)[C@H](OC(C)=O)[C@]4(CC)C=CCN5CC[C@]31[C@@H]54)C2"
parameter_measured = "pIC50"
value_reported = "< 7.19"

[[record]]
compound = "C[C@]1(O)C[C@@H](c2nc(-c3ccc4ccc(-c5ccccc5)nc4c3)c3c(N)nccn32)C1"
parameter_measured = "pIC50"
value_reported = "< 5.59"

[[record]]
compound = "COc1ccc(C2=N[C@@H](c3ccc(Cl)cc3)[C@@H](c3ccc(Cl)cc3)N2C(=O)N2CCNC(=O)C2)c(OC(C)C)c1"
parameter_measured = "pIC50"
value_reported = "< 5.10"


[in] GET /values?readout=pIC50&item= O=C(NOCC1CC1)c1ccc(F)c(F)c1Nc1ccc(I)cc1Cl
[out] < 5.00
